Provenance of the data: patent US20210170043A1

Biological target: T1, human DC-SIGN (full length, expressed on cells) (human, UniProt Q9NNX6 1-404)
T1 construct: Also used for DC-SIGN on human monocyte-derived cells and on cells of human DC-SIGN transgenic mice in the functional rows; also called CD209; human DC-SIGN CHO
T1 sequence: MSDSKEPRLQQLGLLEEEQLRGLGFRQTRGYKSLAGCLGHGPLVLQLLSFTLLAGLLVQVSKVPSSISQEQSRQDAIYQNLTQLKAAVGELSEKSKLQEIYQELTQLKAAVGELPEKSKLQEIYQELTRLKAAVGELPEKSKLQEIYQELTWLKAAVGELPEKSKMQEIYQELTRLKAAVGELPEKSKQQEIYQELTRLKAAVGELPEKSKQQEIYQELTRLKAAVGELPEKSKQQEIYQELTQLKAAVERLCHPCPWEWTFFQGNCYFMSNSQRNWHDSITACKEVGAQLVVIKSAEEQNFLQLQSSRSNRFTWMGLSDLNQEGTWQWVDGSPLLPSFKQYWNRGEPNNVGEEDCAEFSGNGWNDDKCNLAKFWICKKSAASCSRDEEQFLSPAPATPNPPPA
Assay: flow cytometry, IgG titrated on human DC-SIGN K562 cells
Endpoint: EC50 (µg/mL)

{"Binder": "2B2 Chimeric (antibody, V domains shown, Murine variable regions on human constant regions) VH: EVQLQQSGAELVRPGSSVKMSCKTSGYTFTNYGINWVKQRPGQGLEWIGYIYIGNDYTEYNERFKGKATLTSDTSSSTAHIQLNSLTSEDSAIYFCARLYYGSSLYSYAMDYWGQGTSVTVSS VL: DIVMTQAAPSVSVTPGESVSISCRSSKSLLHSSGNTYLYWFLQRPGQSPQLLISRMSNLASGVPDRFSGSGSGTAFTLRISRVEAEDVGVYYCMQHLEYPYTFGGGTKLELKR", "Endpoint": "EC50", "Data Value": 0.28}
